# Protocol details: Half life in monkey at 10 mg/kg administered as single dose
# Type: ADME, organism-based, Macaca mulatta
# Recorded conditions: rhesus monkey, in vivo
Readout label: half-life (h)
Note: unit h is implicit; provide only the numeric part.

Which half-life is reported for this compound? Cl.Nc1ncccc1-c1nc2ccc(-c3ccccc3)nc2n1-c1ccc(C2(N)CCC2)cc1 7

----------
# Protocol details: Tmax in monkey at 10 mg/kg administered as single dose
# Format: ADME, organism-based, Macaca mulatta
# Recorded conditions: rhesus monkey, in vivo
Readout label: Tmax (h)
Quick reminder: number only, in h, skip the unit.

Give its Tmax value. Item: Cl.Nc1ncccc1-c1nc2ccc(-c3ccccc3)nc2n1-c1ccc(C2(N)CCC2)cc1 4.3

----------
# Protocol details: in vitro
# Recorded conditions: male, CD-1, mouse, liver microsomes
Readout label: half-life at 1 µM (min)
Value expressed in min; do not type the unit.

Cl.Nc1ncccc1-c1nc2ccc(-c3ccccc3)nc2n1-c1ccc(C2(N)CCC2)cc1; 17

Given Cl.Nc1ncccc1-c1nc2ccc(-c3cccnc3)nc2n1-c1ccc(C2(N)CCC2)cc1 , state its recorded half-life at 1 µM. 31

----------
# Protocol details: in vitro
# Recorded conditions: female, CD-1, mouse, liver microsomes
Readout label: half-life at 1 µM (min)
The response must be a number in min with no trailing unit.

Look up half-life at 1 µM: CC(=O)Nc1cccc(-c2ccc3nc(-c4cccnc4N)n(-c4ccc(CN)cc4)c3n2)c1.Cl 45

Looking for the measured half-life at 1 µM of Cl.Nc1ncccc1-c1nc2ccc(-c3cccnc3)nc2n1-c1ccc(C2(N)CCC2)cc1 , can you help? 37

# half-life at 1 µM lookup, item Cl.Nc1ncccc1-c1nc2ccc(-c3ccccc3)nc2n1-c1ccc(C2(N)CCC2)cc1 18

----------
# Protocol details: Drug uptake in NCr-M nude mouse plasma xenografted with human AN3CA cells at 100 mg/kg, po after 8 hr
# Format: ADME, organism-based
Readout label: concentration at 8 h (nM)
Give the quantity in nM, number only.

Would you mind telling me what concentration at 8 h value was observed for Cl.Nc1ncccc1-c1nc2ccc(-c3ccccc3)nc2n1-c1ccc(C2(N)CCC2)cc1 ? 260

----------
# Protocol details: Oral bioavailability in rat at 5 mg/kg administered as single dose
# Type: ADME, organism-based
# Recorded conditions: in vivo
Readout label: bioavailability

Please look up its bioavailability: Cl.Nc1ncccc1-c1nc2ccc(-c3ccccc3)nc2n1-c1ccc(C2(N)CCC2)cc1 62%

----------
# Protocol details: Solubility of the compound
# Type: physicochemical
Recorded solubility for the following compounds
API: value field is a number in µM; no unit string.

// solved cases for solubility follow
Cl.Nc1ncccc1-c1nc2ccc(-c3cccnc3)nc2n1-c1ccc(C2(N)CCC2)cc1; 178
CC(=O)Nc1cccc(-c2ccc3nc(-c4cccnc4N)n(-c4ccc(C5(N)CCC5)cc4)c3n2)c1.Cl; 160
Cl.NCc1ccc(-n2c(-c3cccnc3N)nc3ccc(-c4ccccc4)nc32)cc1; 188

Param item = Cl.Nc1ncccc1-c1nc2ccc(-c3ccccc3)nc2n1-c1ccc(C2(N)CCC2)cc1 ; retrieve measured solubility. 170

// lookup solubility for Cl.Nc1cccc(-c2ccc3nc(-c4cccnc4N)n(-c4ccc(C5(N)CCC5)cc4)c3n2)c1 138

----------
# Protocol details: in vitro
# Recorded conditions: female, Beagle, dog, liver microsomes
The following compounds are listed with their measured half-life at 1 µM values.
# value in min; strip the unit string

Use the examples below as a reference point.
Cl.Nc1ncccc1-c1nc2ccc(-c3ccccc3)nc2n1-c1ccc(C2(N)CCC2)cc1; 28
CC(=O)Nc1cccc(-c2ccc3nc(-c4cccnc4N)n(-c4ccc(C5(N)CCC5)cc4)c3n2)c1.Cl; 50

half-life at 1 µM lookup needed for Cl.Nc1ncccc1-c1nc2ccc(-c3cccnc3)nc2n1-c1ccc(C2(N)CCC2)cc1 , thanks. 21

----------
# Protocol details: Drug uptake in NCr-M nude mouse plasma xenografted with human AN3CA cells at 100 mg/kg, po after 1 hr
# Format: ADME, organism-based
Readout label: concentration at 1 h

# input compound: Cl.Nc1ncccc1-c1nc2ccc(-c3ccccc3)nc2n1-c1ccc(C2(N)CCC2)cc1 ; wanted: its concentration at 1 h 2100 nM

----------
List of half-life at 1 µM values.
# Protocol details: in vitro
# Recorded conditions: human, liver microsomes
Write down the numeric answer in min and omit the unit.

Cl.NCc1ccc(-n2c(-c3cccnc3N)nc3ccc(-c4ccccc4)nc32)cc1; 39

# next compound below
So what does the record say about half-life at 1 µM for Cl.Nc1ncccc1-c1nc2ccc(-c3ccccc3)nc2n1-c1ccc(C2(N)CCC2)cc1 ? 55

----------
# Protocol details: in vitro
# Recorded conditions: male, CD-1, mouse, liver microsomes
Below is a list of entries, each paired with its recorded half-life at 1 µM value.

Examples with answers:
Cl.Nc1cccc(-c2ccc3nc(-c4cccnc4N)n(-c4ccc(C5(N)CCC5)cc4)c3n2)c1; > 60 min
CC(=O)Nc1cccc(-c2ccc3nc(-c4cccnc4N)n(-c4ccc(CN)cc4)c3n2)c1.Cl; > 60 min

Kindly review the next compound as well.
Record request: half-life at 1 µM value, item CC(=O)Nc1cccc(-c2ccc3nc(-c4cccnc4N)n(-c4ccc(C5(N)CCC5)cc4)c3n2)c1.Cl > 60 min

----------
# Protocol details: in vitro
# Recorded conditions: human, liver microsomes
Readout label: half-life at 1 µM

CC(=O)Nc1cccc(-c2ccc3nc(-c4cccnc4N)n(-c4ccc(C5(N)CCC5)cc4)c3n2)c1.Cl; > 1 h
Cl.Nc1ncccc1-c1nc2ccc(-c3cccnc3)nc2n1-c1ccc(C2(N)CCC2)cc1; > 0.5 h

Which half-life at 1 µM is listed for Cl.Nc1cccc(-c2ccc3nc(-c4cccnc4N)n(-c4ccc(C5(N)CCC5)cc4)c3n2)c1 ? > 1 h

Source: ChEMBL document CHEMBL4477217
